- EXPERIMENT_DESCRIPTION: A quantitative high throughput screen for small molecules that induce DNA re-replication in MCF 10a normal breast cells. Also: nearly all actives have a fitted effect of over 50% in size.
- CONDITION_SUMMARY: MCF 10A DNA re-replication, Hoechst nuclear intensity, 48 h; series mostly up to 46.1 µM
The campaign covered roughly 350,000 compounds. About 9,900 (2.8%) were called active. Another 15% or so got no clear call; they are omitted. Calls follow the shape of the dose curve; as a rule, active = well fitted activation curve with a large enough effect; inconclusive = small, poorly fitted or top-dose-only effect; inactive = no such curve, though single readings can be large or run the other way. The list comes from a sample in which actives are over-represented; it also holds close analogues and randomly drawn compounds.
Field 'call' accepts true = active, false = inactive

Cc1cc(C)nc(SCC(=O)c2ccc(Cl)cc2)n1: false

State the result this test recorded for Cc1ccc(N/C=C/C(=O)c2ccccc2)cc1C .
false

Hi, do you know how CCN(CC)C(=O)N(CC)Cc1ccccc1 came out in this test?
false

Please indicate how the test categorized O=C(O)CCC(=O)N(Cc1cccs1)Cc1cccs1 .
false

Check the results log: what was the call for O=C(O)C(=Cc1ccccc1[N+](=O)[O-])c1ccccc1 ?
false

Tell me the recorded outcome of this test for COc1ccc(Cl)cc1NC(=O)CN1CCN(C(=O)N2CCOCC2)CC1 .
false

Would you mind telling me which call this test gave C#CCOCCOCCOCCNc1nc(N2CCN(C(=O)Cn3cc(CCO)nn3)CC2)nc(N2CCN(C(=O)Cn3cc(CCCN=C(N)N)nn3)CC2)n1 ?
false

Assay outcome for COc1ccccc1Cc1nc(-c2ccc(C)cc2)no1 : what was it?
true

Called result for O=C(CNC(=O)c1n[nH]c2ccccc12)Nc1cc(Cl)ccc1Cl
false

Lab log entry: Cc1cccc(NC(=O)CN2CCN(CC(=O)NCC3(N4CCCCC4)CCCCC3)CC2)c1C — outcome as called in the assay?
false

What classification did Cc1ccc(-c2noc(CC(c3ccccc3)c3ccccc3)n2)cc1 end up with in this test?
false

###

- EXPERIMENT_DESCRIPTION: A quantitative high throughput screen for small molecules that induce DNA re-replication in MCF 10a normal breast cells. Also: nearly all actives have a fitted effect of over 50% in size.
- CONDITION_SUMMARY: MCF 10A DNA re-replication, Hoechst nuclear intensity, 48 h; series mostly up to 46.1 µM
About 9,900 (2.8%) of roughly 350,000 compounds were called active. Not shown: some 15% with an inconclusive outcome. The call rests on the fitted dose curve; in most records, active means well fitted activation curve with a large enough effect; inconclusive means small, poorly fitted or top-dose-only effect; inactive means no such curve, though single readings can be large or run the other way. The entries come from a sample that favours actives as a whole.
Outcomes you can answer with include only these: active, inactive

A selection of reference data follows.
COc1ccc2oc(C(=O)NCc3ccco3)c(C)c2c1: inactive
c1ccc(-c2c[nH]c(-c3ccccc3)c2)cc1: inactive
CCn1c(/C=C/c2ccc([N+](=O)[O-])o2)nc2ccccc2c1=O: active

Tell me the recorded outcome of this test for Cc1ccc2nc3c(cc(C(=O)NCCc4ccccc4)c(=N)n3CC3CCCO3)c(=O)n2c1 (stereo unspecified) .
active

###

- EXPERIMENT_DESCRIPTION: A quantitative high throughput screen for small molecules that induce DNA re-replication in MCF 10a normal breast cells. Also: nearly all actives have a fitted effect of over 50% in size.
- CONDITION_SUMMARY: MCF 10A DNA re-replication, Hoechst nuclear intensity, 48 h; series mostly up to 46.1 µM
The campaign covered roughly 350,000 compounds. About 9,900 (2.8%) were called active. Another 15% or so got no clear call; they are omitted. Calls follow the shape of the dose curve; as a rule, active = well fitted activation curve with a large enough effect; inconclusive = small, poorly fitted or top-dose-only effect; inactive = no such curve, though single readings can be large or run the other way. Only a selection was taken, and actives are over-represented in it overall.
Field 'call' accepts Y for active, N for inactive

Use the examples below as a reference point.
CC(C)Sc1nnc([C@H](Cc2ccccc2)NC(=O)OC(C)(C)C)o1: N
COC(=O)c1sc(NC(=O)COC(=O)C2CCC2)c(C(=O)OC)c1C: N
COC(C[C@@H]1O[C@@H]1C(=O)[C@H](C)OCc1ccccc1)OC: N
CCSc1nc2sc3c(c2c(=O)n1-c1ccc(C)cc1)CCN(C)C3: Y
O=C(O)/C=C/C(=O)Nc1ccc(F)cc1F: N
Cc1ccccc1-c1nc(C#N)c(NCc2ccco2)o1: N

Please state the recorded outcome for this compound: O=C(CN1C(=O)NC2(CCCCCCC2)C1=O)NCc1ccc(F)cc1
N

# lookup: test call for COc1ccc(CNC(=O)CN2C(=O)c3ccccc3S2(=O)=O)cc1
N

Recorded test call requested for COC(=O)c1sc(-c2ccc(C(C)(C)C)cc2)cc1NC(=O)/C=C/C(=O)O
Y

Hello, I am checking results. What call was entered for Cc1csc2nc(COC(=O)c3cccc(N(C)C)c3)cc(=O)n12 ?
N
